Assay: Oral bioavailability in rat
Assay type: ADME, organism-based
Details: in vivo
Measured bioavailability, listed per entry.
Field: value (include unit after the number)

In [3]: df
Out[3]:
                                 cpd_smiles          readout  measurement
0  O=C(NC[C@H]1CN(c2ccc(N3CCCC3=O)cc2)C(=O)O1)c1ccc(Cl)s1  bioavailability          65%

Lookup: What value of bioavailability has been reported for the following compound? O=C(NC[C@H]1CN(c2ccc(N3CCOCC3=O)cc2)C(=O)O1)c1ccc(Cl)s1
Found: 60%

###

Assay: Mean plasma clearance in female Beagle dogs after intravenous administration of the compound at a dose of 0.3 and 1 mg/kg
Assay type: ADME, organism-based, Canis lupus familiaris
Set-up: dose 1 mg/kg, route intravenous
Conditions: dog
readout: clearance (mL/min/kg)
// note: answer is a bare numeric in mL/min/kg

Lookup: What value of clearance has been reported for the following molecule? O=C(NC[C@H]1CN(c2ccc(N3CCOCC3=O)cc2)C(=O)O1)c1ccc(Cl)s1 [RIVAROXABAN]
Found: 5

###

Experiment: Plasma clearance in wistar rats after intravenous administration of the compound at a dose of 0.3 mg/kg
Assay type: ADME, organism-based
Parameters: dose 0.3 mg/kg, route intravenous
Conditions: rat
readout: clearance

Lookup: What value of clearance has been reported for the following molecule? O=C(NC[C@H]1CN(c2ccc(N3CCOCC3=O)c(F)c2)C(=O)O1)c1ccc(Cl)s1
Found: 18.2 mL/min/kg

###

Experiment: Mean half-life after intravenous administration to female Beagle dogs at a dose of 0.3 and 1 mg/kg
Assay type: ADME, organism-based, Canis lupus familiaris
Set-up: dose 1 mg/kg, route intravenous
Details: dog, in vivo
readout: half-life (min)
// note: answer is a bare numeric in min

Lookup: What value of half-life has been reported for the following compound? O=C(NC[C@H]1CN(c2ccc(N3CCOCC3=O)cc2)C(=O)O1)c1ccc(Cl)s1
Found: 54

###

Test: Fraction of unbound compound in rat plasma
Assay type: ADME, cell-free
Conditions: read-out: Fraction free drug in plasma
readout: fraction unbound
Please reply with the number alone, leaving off any unit.

Lookup: What value of fraction unbound has been reported for the following molecule? O=C(NC[C@H]1CN(c2ccc(N3CCCC3=O)cc2)C(=O)O1)c1ccc(Cl)s1
Found: 0.002

###

Experiment: Plasma clearance in wistar rats after intravenous administration of the compound at a dose of 1 mg/kg
Assay type: ADME, organism-based
Design: dose 1 mg/kg, route intravenous
Settings: rat
readout: clearance (mL/min/kg)
// note: answer is a bare numeric in mL/min/kg

Lookup: What value of clearance has been reported for the following molecule? O=C(NC[C@H]1CN(c2ccc(N3CCCC3=O)cc2)C(=O)O1)c1ccc(Cl)s1
Found: 2.83

###

Test: Mean apparent volume of distribution at equilibrium after administration in female Beagle dogs at a dose of 0.3 and 1 mg kg-1 intravenously
Type: ADME, organism-based, Canis lupus familiaris
Design: dose 1 mg kg-1, route intravenous
Details: dog, in vivo, iv, read-out: Vss
readout: Vd (L/kg)
// note: answer is a bare numeric in L/kg

Lookup: What value of Vd has been reported for the following compound? O=C(NC[C@H]1CN(c2ccc(N3CCOCC3=O)cc2)C(=O)O1)c1ccc(Cl)s1
Found: 0.4

###

Assay: Apparent volume of distribution at equilibrium after intravenous administration in rats
Format: ADME, organism-based
Conditions: rat, in vivo, read-out: Vss
Measured Vd, listed per entry.
// note: answer is a bare numeric in L/kg

                                 cpd_smiles  units_of_measure  measurement
0  O=C(NC[C@H]1CN(c2ccc(N3CCCC3=O)cc2)C(=O)O1)c1ccc(Cl)s1              L/kg         0.21

Moving on to the next compound.
Lookup: What value of Vd has been reported for the following compound? O=C(NC[C@H]1CN(c2ccc(N3CCOCC3=O)c(F)c2)C(=O)O1)c1ccc(Cl)s1
Found: 0.32
